# procedure.summary: qHTS assay to identify small molecule agonists of H2AX - cell viability counter screen (AID 1224847); also: nearly all actives have a fitted effect of over 30% in size
# test.context: CHO-K1 viability, CellTiter-Glo luminescence, 3 h; series mostly up to 154 µM
Results filed as inconclusive are left out. Activity calls are given as the source filed them. Calls follow the shape of the full dose curve.
Select the matching outcome among T = active, F = inactive

Solved entries (count: 5):
molecule: CC(=O)OCC(C)C
classification: F
//
molecule: CCOC(=O)Oc1ccc(CCNC(=O)[C@H](CCSC)NC(C)=O)cc1OC(=O)OCC
classification: F
//
molecule: COC1CCC=CO1 (centres undefined)
classification: F
//
molecule: CCN(Cc1cccc(S(=O)(=O)O)c1)c1ccc(C(=C2C=CC(=[N+](CC)Cc3cccc(S(=O)(=O)O)c3)C=C2)c2ccccc2S(=O)(=O)[O-])cc1
classification: T
//
molecule: O=C(O)/C=C/c1ccc(O)c(O)c1
classification: F

Query string: Just curious, what result did SCCc1cnccn1 get here?
Result string: F

Query string: Just curious, what result did Cc1ccc(N(CCO)CCO)cc1 get here?
Result string: F

Query string: Just curious, what result did CCc1ccc(C)cc1 get here?
Result string: F

Query string: Just curious, what result did CC(=O)NNC(C)=O get here?
Result string: F

Query string: Just curious, what result did CCN(CC)c1ccc(C(=C2C=CC(=[N+](CC)CC)C=C2)c2ccc(S(=O)(=O)O)cc2S(=O)(=O)[O-])cc1 get here?
Result string: T

Query string: Just curious, what result did CC[C@H]1OC(=O)[C@H](C)[C@@H](O[C@H]2C[C@@](C)(OC)[C@@H](O)[C@H](C)O2)[C@H](C)[C@@H](O[C@@H]2O[C@H](C)C[C@H](N(C)C)[C@H]2O)[C@](C)(O)C[C@@H](C)C(=O)[C@H](C)[C@@H](O)[C@]1(C)O get here?
Result string: F

Query string: Just curious, what result did CC(C(=O)O)c1ccc(C(=O)c2cccs2)cc1 (centres undefined) get here?
Result string: F

Query string: Just curious, what result did O=[N+]([O-])C1(Br)COCOC1 get here?
Result string: T

----------
# procedure.summary: qHTS RealTime-Glo MT Cell Viability Assay in HEK293 cells - 8 hour (AID 1224887); also: nearly all actives have a fitted effect of over 50% in size
# test.context: RealTime-Glo luminescence; series mostly up to 76.8 µM
Results filed as inconclusive are left out. Calls of active or inactive are those of the source. Calls come from the whole dose curve; as a rule, active = well fitted cell-killing curve with a large enough effect in the repeat runs; inconclusive = weak or mixed curves, or effect the other way; inactive = flat fitted curve, though single readings scatter.
Select the matching outcome among Yes for active, No for inactive

molecule: Nc1cccc2c(N)cccc12
classification: No

molecule: CC(=O)c1ccc[nH]1
classification: No

molecule: CCO[Si](C)(CCCOCC1CO1)OCC (stereo not given)
classification: No

Query string: Just curious, what result did CCCCCCC(CO)CCCC (stereo not given) get here?
Result string: No

Query string: Just curious, what result did CCCCCCCCCCCCCOS(=O)(=O)O get here?
Result string: No

Query string: Just curious, what result did COc1cc(C(C)=O)ccc1OCCCN1CCC(c2noc3cc(F)ccc23)CC1 get here?
Result string: Yes

Query string: Just curious, what result did CC[C@H]1OC(=O)[C@H](C)[C@@H](O[C@H]2C[C@@](C)(OC)[C@@H](O)[C@H](C)O2)[C@H](C)[C@@H](O[C@@H]2O[C@H](C)C[C@H](N(C)C)[C@H]2O)[C@](C)(O)C[C@@H](C)C(=O)[C@H](C)[C@@H](O)[C@]1(C)O get here?
Result string: No

Query string: Just curious, what result did CCN(CC)c1ccc(C(=C2C=CC(=[N+](CC)CC)C=C2)c2ccc(S(=O)(=O)O)cc2S(=O)(=O)[O-])cc1 get here?
Result string: No

Query string: Just curious, what result did O=C(c1ccccc1)C1CCC1 get here?
Result string: No

Query string: Just curious, what result did O[C@@H](CNC[C@H](O)[C@H]1CCc2cc(F)ccc2O1)[C@@H]1CCc2cc(F)ccc2O1 get here?
Result string: Yes

----------
# procedure.summary: Caspase-3/7 induction in CHO-K1 cells by small molecules, qHTS cell viability counter screen (AID 1346979); also: nearly all actives have a fitted effect of over 35% in size
# test.context: CellTiter-Fluor fluorescence, 17 h; series mostly up to 92.4 µM
Inconclusive results are not listed. Active and inactive are the calls of the source. The call rests on the fitted dose curve; in most records, active means well fitted cell-killing curve with a large enough effect in the repeat runs; inconclusive means weak or mixed curves, or effect the other way; inactive means no such curve, though single readings can be large or run the other way.

smiles.input: O=c1[nH]c2cc(C(F)(F)F)c(N3CCOCC3)cc2n(CP(=O)(O)O)c1=O
outcome: inactive

smiles.input: CCc1ccc(C)cc1
outcome: inactive

smiles.input: O=C(CCS)OCC(COC(=O)CCS)(COC(=O)CCS)COC(=O)CCS
outcome: inactive

----------
# procedure.summary: A CellTox Green Cytotoxicity Assay to monitor cytotoxicity in HepG2 cells - 16 hour (AID 1224876); also: nearly all actives have a fitted effect of over 45% in size
# test.context: CellTox Green fluorescence; series mostly up to 76.8 µM
Results filed as inconclusive are left out. The source made the active and inactive calls. The call rests on the fitted dose curve; in most records, active means well fitted activation curve with a large enough effect in the repeat runs; inconclusive means weak or mixed curves; inactive means flat fitted curve, though single readings scatter.
Select the matching outcome among True = active, False = inactive

Solved entries (count: 8):
compound: Cc1cn([C@H]2C[C@H](F)[C@@H](CO)O2)c(=O)[nH]c1=O
classification: False
--
compound: O=C(c1ccccc1)c1ccc(O)cc1
classification: False
--
compound: CCN(CC)c1ccc(C(=C2C=CC(=[N+](CC)CC)C=C2)c2ccc(S(=O)(=O)O)cc2S(=O)(=O)[O-])cc1
classification: False
--
compound: CN=C(N)NC(=O)Nc1c(C)cccc1C
classification: False
--
compound: CCCCOC(=O)CCCCC(=O)OCCCC
classification: False
--
compound: CC(C)OC(=O)c1ccccc1C(=O)OC(C)C
classification: False
--
compound: O=C(O)CNC(=O)c1ccccc1I
classification: False
--
compound: CNCc1ccc(NC(=O)c2c[nH]c3c2C(=O)CCC3)cc1
classification: False

Query string: Just curious, what result did Cc1cc([N+](=O)[O-])ccc1N get here?
Result string: False

Query string: Just curious, what result did O=c1[nH]c2cc(C(F)(F)F)c(N3CCOCC3)cc2n(CP(=O)(O)O)c1=O get here?
Result string: False

Query string: Just curious, what result did CC(C)(C)NCC(O)COc1cccc2c1C[C@H](O)[C@H](O)C2 (stereo partly specified) get here?
Result string: False

----------
# procedure.summary: qHTS RealTime-Glo MT Cell Viability Assay in HEK293 cells - 8 hour (AID 1224887); also: nearly all actives have a fitted effect of over 50% in size
# test.context: RealTime-Glo luminescence; series mostly up to 76.8 µM
# Description: U.S. Tox21 Program National Center for Advancing Translational Sciences [NCATS] NIH Chemical Genomics Center [NCGC] U.S. Environmental Protection Agency [EPA] National Institutes of Environmental Health Sciences [NIEHS] National Toxicology Program [NTP] U.S. Food and Drug Administration [FDA] Tox21 Assay Overview: Measure of cell viability is critical in the cell-base assay. Analysis of cell viability is necessary for the characterization of cell responses to cytotoxic drugs and environmental stress. […]
Results filed as inconclusive are left out. Calls of active or inactive are those of the source. Calls come from the whole dose curve; as a rule, active = well fitted cell-killing curve with a large enough effect in the repeat runs; inconclusive = weak or mixed curves, or effect the other way; inactive = flat fitted curve, though single readings scatter.
Select the matching outcome among t for active, f for inactive

Solved entries (count: 6):
molecule: CCCCCCCC/C=C/C(=O)O
classification: f
//
molecule: CS(=O)(=O)c1ccc([C@@H](C[C@H]2CCC(=O)C2)C(=O)Nc2cnccn2)cc1Cl
classification: f
//
molecule: O=C(O)CO
classification: f
//
molecule: CCCCCCCC/C=C\CCCCCCCC(=O)OCCO
classification: t
//
molecule: CCN(CC)CC(=O)Nc1c(C)cccc1C(=O)OC
classification: f
//
molecule: O=S(=O)(O)CO
classification: f

Okay, next one:
Query string: Just curious, what result did COc1ccc(-n2nc(C(F)F)cc2-c2ccc(S(C)=O)cc2)cc1 (configuration not stated) get here?
Result string: f

----------
# procedure.summary: A CellTox Green Cytotoxicity Assay to monitor cytotoxicity in HepG2 cells - 24 hour (AID 1224878); also: nearly all actives have a fitted effect of over 45% in size
# test.context: CellTox Green fluorescence; series mostly up to 76.8 µM
Records with an inconclusive call do not appear. Active and inactive are the calls of the source. The call rests on the fitted dose curve; in most records, active means well fitted activation curve with a large enough effect in the repeat runs; inconclusive means weak or mixed curves; inactive means flat fitted curve, though single readings scatter.
Select the matching outcome among true (active), false (inactive)

molecule: CC(C)C(=O)OCCOc1ccccc1
classification: false

molecule: Nc1ccc(S(=O)(=O)NCc2ccccc2)cc1
classification: false

molecule: CC(C)c1ccc(C(=O)N=C(N)N)cc1S(C)(=O)=O
classification: false

molecule: O=C(O)CNC(=O)c1ccccc1I
classification: false

molecule: C[C@@H]1C[C@H]2[C@@H]3CCC4=CC(=O)C=C[C@]4(C)[C@@]3(F)[C@@H](O)C[C@]2(C)[C@@]1(O)C(=O)COP(=O)(O)O
classification: false

molecule: CC(C)C(O)C(C)(C)CO (centres undefined)
classification: false

molecule: CC(C)N(C)C
classification: false

molecule: CC(C)(C(=O)c1cccnc1)c1cccnc1
classification: false

Query string: Just curious, what result did Cc1cccc2sc(N)nc12 get here?
Result string: false

----------
# procedure.summary: qHTS assay to identify small molecule antagonists of the estrogen related receptor signaling pathway with the pleiotropic PPARgamma coactivator (PGC) from Tox21 10K library - cell viability counter screen (AID 1224840); also: nearly all actives have a fitted effect of over 40% in size
# test.context: PGC/ERR reporter cells viability, CellTiter-Fluor, 17.5 h; series mostly up to 92.4 µM
# Procedure: National Center for Advancing Translational Sciences [NCATS] NIH Chemical Genomics Center [NCGC] U.S. Environmental Protection Agency [EPA] National Institutes of Environmental Health Sciences [NIEHS] National Toxicology Program [NTP] […] The PGC/ERR cells were dispensed at 2,000 cells/5 ul/well in 1536-well white plates using a Multidrop dispenser. […] After 30-minute incubation at 37 C/5% CO2, the fluorescence intensity in the plates was measured using a ViewLux plate reader.
Records with an inconclusive call do not appear. Calls of active or inactive are those of the source. The call rests on the fitted dose curve; in most records, active means well fitted cell-killing curve with a large enough effect in the repeat runs (not every such curve was filed as active); inconclusive means weak or mixed curves, or effect the other way; inactive means no such curve, though single readings can be large or run the other way.
Select the matching outcome among active, inactive

Solved entries (count: 3):
compound: O=P(O)(O)Oc1ccccc1
classification: inactive

compound: N[C@@H](Cc1cc(I)c(O)c(I)c1)C(=O)O
classification: inactive

compound: COC1CCC=CO1 (stereo not drawn)
classification: inactive

Query string: Just curious, what result did CC(=O)OCCC1CCCCC1 get here?
Result string: inactive

Data provenance: PubChem BioAssay (Tox21)
